- measured on: Cysteine protease ATG4B (Homo sapiens) (UniProt Q9Y4P1)
- Sequence (Q9Y4P1 whole entry, looked up): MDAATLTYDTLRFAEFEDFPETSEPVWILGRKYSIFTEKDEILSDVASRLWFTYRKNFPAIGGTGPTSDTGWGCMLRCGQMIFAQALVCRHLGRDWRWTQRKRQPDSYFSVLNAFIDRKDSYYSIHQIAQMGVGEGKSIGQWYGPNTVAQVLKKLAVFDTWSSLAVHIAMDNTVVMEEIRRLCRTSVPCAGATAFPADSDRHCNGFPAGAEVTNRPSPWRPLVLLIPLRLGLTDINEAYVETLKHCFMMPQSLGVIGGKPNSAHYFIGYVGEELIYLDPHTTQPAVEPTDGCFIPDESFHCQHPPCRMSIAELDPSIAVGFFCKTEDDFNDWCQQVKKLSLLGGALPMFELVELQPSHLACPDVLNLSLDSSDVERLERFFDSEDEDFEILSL
- experimental details: ATG4B protease inhibitors, primary screen, biochemical, fluorescence, uHTS (AID 504462)
- recorded conditions: ATG4B cleavage of LC3-PLA2, NBD-HPC fluorescence, 1 h; at 8.33 µM
Hit rate of the full screen: of about 340,000 compounds, about 1,700 (0.5%) were called active. Rule as the data show it: active = inhibition above about 40%; inactive = the rest. Only a selection was taken, and actives are over-represented in it overall.
Lab note: assign the record to one of 1 (yes) for active, 0 (no) for inactive

Study these solved cases before continuing.
CNS(=O)(=O)c1cccc(C(=O)NC2CCCc3ccccc32)c1 (stereo not given) ... 0 (no)
COc1ccc(Br)cc1/C=N/Nc1ccc(S(=O)(=O)Nc2ccccc2C(=O)O)cc1[N+](=O)[O-] ... 0 (no)
CCN(CC)C(=O)c1sc2nc(-c3ccccc3)ccc2c1N ... 0 (no)
CCN1C[C@@H]2[C@@H]3C(=O)N(Cc4ccccc4)C(=O)[C@@H]3[C@](C)(C1=O)N2C(=O)c1ccc(C(C)(C)C)cc1 ... 0 (no)
O=C(O)c1ccccc1/C=N/Nc1ccc(S(=O)(=O)Nc2ccc(Cl)cc2)cc1[N+](=O)[O-] ... 0 (no)
O=C(Nc1cccc(F)c1)NC1CCCCCCC1 ... 0 (no)
Cc1sc2nc(CC(N)=O)[nH]c(=O)c2c1-c1ccccc1 ... 0 (no)
O=C(CN1CCOCC1)Nc1c(-c2ccccc2)c2cc(Br)ccc2[nH]c1=O ... 0 (no)
COc1cccc(/C=N/Nc2ccc(S(=O)(=O)Nc3ccccc3C(=O)O)cc2[N+](=O)[O-])c1O ... 1 (yes)

Q: Query: recorded result category for O=C(Nc1cccc(F)c1)NC1CCCc2ccccc21 (stereo not given) in this test
Ans: 1 (yes)

----------
- measured on: Cysteine protease ATG4B (Homo sapiens) (UniProt Q9Y4P1)
- experimental details: ATG4B protease inhibitors, primary screen, biochemical, fluorescence, uHTS (AID 504462)
- recorded conditions: ATG4B cleavage of LC3-PLA2, NBD-HPC fluorescence, 1 h; at 8.33 µM; hits give high values
Hit rate of the full screen: of about 340,000 compounds, about 1,700 (0.5%) were called active. This is one part of a sample in which actives are shown more often than they occur.
readout: inhibition (%)
Lab book: enter the figure in %, no units written.

Consider the worked cases shown below.
CCc1ccccc1NC(=O)CCOc1ccccc1 ... -0.7
COc1ccccc1Oc1ccc(N/C=C2/CCCC2=O)cc1 ... 1.94
O=C(CSc1nnnn1C1CCCC1)Nc1ccc2c(c1)OCCO2 ... -5.58

Q: Could you please provide reported inhibition for `CCc1ccccc1NC(=S)Nc1cc(OC)c(NC(=O)C(C)C)cc1OC` ? Thanks!
Ans: 3.4

Q: Recall and state the measured inhibition for `CCc1ccccc1NC(=O)/C(=C/c1ccccc1)c1ccccc1` .
Ans: 59.5

Q: Fill in reported inhibition for this entry: `COc1ccc(/C=C2\N=C3CCCN3C2=O)cc1`
Ans: 0.67

----------
- measured on: Cysteine protease ATG4B (Homo sapiens) (UniProt Q9Y4P1)
- experimental details: ATG4B protease inhibitors, primary screen, biochemical, fluorescence, uHTS (AID 504462)
- recorded conditions: ATG4B cleavage of LC3-PLA2, NBD-HPC fluorescence, 1 h; at 8.33 µM; hits give high values
The campaign covered roughly 340,000 compounds. About 1,700 (0.5%) were called active. The entries come from a sample that favours actives as a whole.
readout: inhibition (%)
Note: unit % is implicit; provide only the numeric part.

CN(CC(=O)NCc1ccc(Cl)cc1)S(=O)(=O)c1cccs1 ... -5.56
CN(Cc1ccc(F)cc1Cl)S(=O)(=O)c1cccs1 ... 11
CCOC(=O)c1c(-c2ccccc2)oc2cc(Br)c(O)cc12 ... -6.47

API: the following record is the query input.
Q: Fill in reported inhibition for this entry: `CCn1c2ccccc2c2cc(CC(N)=O)ccc21`
Ans: 25

----------
- measured on: Cysteine protease ATG4B (Homo sapiens) (UniProt Q9Y4P1)
- experimental details: ATG4B protease inhibitors, primary screen, biochemical, fluorescence, uHTS (AID 504462)
- recorded conditions: ATG4B cleavage of LC3-PLA2, NBD-HPC fluorescence, 1 h; at 8.33 µM
In all, about 340,000 compounds went through this assay and about 1,700 (0.5%) were called active. No stated cut-off is given here; in the data, active means inhibition above about 40%; inactive means the rest. What follows is part of a selection rich in actives, with near analogues and random picks from the rest.
Returns: one label drawn from yes (active), no (inactive)

These recorded examples may help you get a feel for the data.
O=C(c1n[nH]c2c1CCC2)N1CCCC(Nc2cccc(F)c2)C1 (configuration not stated) ... no
Cn1c(SCC(=O)N/N=C/c2ccc(O)c(O)c2)nc2ccccc21 ... no

Q: For `Cc1c(Cl)c([N+](=O)[O-])nn1CCCC(=O)Nc1cc(Cl)ccc1Cl` , what call appears in the results of this test?
Ans: yes

Q: # lookup: test call for `O=C(CSc1nc2ccccc2[nH]1)N/N=C/C=C\c1ccccc1[N+](=O)[O-]`
Ans: no

Q: Which outcome did this test record for the molecule `Cn1c(SCc2c(F)cccc2Cl)nnc1-c1cnccn1` ?
Ans: no

----------
- measured on: Cysteine protease ATG4B (Homo sapiens)
- experimental details: ATG4B protease inhibitors, primary screen, biochemical, fluorescence, uHTS (AID 504462)
- recorded conditions: ATG4B cleavage of LC3-PLA2, NBD-HPC fluorescence, 1 h; at 8.33 µM; hits give high values
In all, about 340,000 compounds went through this assay and about 1,700 (0.5%) were called active. What follows is part of a selection rich in actives, with near analogues and random picks from the rest.
Listed compounds paired with reported inhibition
Just the number please, in %, no unit attached.

CC1Cc2ccccc2N1C1=CC(=O)CC(C)(C)C1 (stereo unspecified) ... -2.3
CC(C)(C)Cc1nnc(NC(=O)c2cc(-c3ccccc3)nc3ccccc23)s1 ... 10.4
COc1ccc(Br)cc1C(=O)Nc1cccc(C)c1C ... 7.75
CCc1nn(-c2cc(Oc3cccc4ccccc34)nc(-c3ccccc3)n2)c(N)c1C#N ... -7.41
COc1ccc(CNC(=O)C2(CC3CC(c4ccccc4)=NO3)CCN(C(=O)c3cccc(O)c3)CC2)cc1 (stereo unspecified) ... -7.3
CCn1nnc(NC(=O)c2cc(Cl)c(OC)c(Cl)c2)n1 ... -1.88
CC(=O)c1cnc(-c2ccccc2)s1 ... -11.9
COc1cc2ccccc2cc1C(=O)Nc1ccccc1C ... -2.98

Q: Supply measured inhibition of `CCOc1cc(/C=C2\SC(N3CCCCC3)=NC2=O)ccc1O` in your reply.
Ans: -6.5

Q: Please supply the value of reported inhibition for the item `NC(=O)Cc1ccc2sc(-c3ccccc3)nc2c1`
Ans: 71.4

Q: Determine its reported inhibition: O=S1(=O)CCC(NC(=S)SCc2ccccc2Br)C1 (stereo unspecified)
Ans: -4.75

----------
- measured on: Cysteine protease ATG4B (Homo sapiens) (UniProt Q9Y4P1)
- experimental details: ATG4B protease inhibitors, primary screen, biochemical, fluorescence, uHTS (AID 504462)
- recorded conditions: ATG4B cleavage of LC3-PLA2, NBD-HPC fluorescence, 1 h; at 8.33 µM
Hit rate of the full screen: of about 340,000 compounds, about 1,700 (0.5%) were called active. Rule as the data show it: active = inhibition above about 40%; inactive = the rest. What follows is part of a selection rich in actives, with near analogues and random picks from the rest.
Respond using exactly one of the listed classes: active, inactive

Check out these entries, answers already filled in.
FC(F)(F)c1cccc(N/N=C/c2ccccc2)c1 ... inactive
O=c1cc(C(F)(F)F)[nH]c(=O)n1C1CCCCC1 ... inactive
C[C@H](CO)N1C[C@H](C)[C@@H](CN(C)S(=O)(=O)c2ccc(F)cc2)Oc2c(NC(=O)Nc3ccccc3)cccc2C1=O ... inactive
Cc1nc([N+](=O)[O-])nn1C12CC3CC(CC(Br)(C3)C1)C2 ... inactive
Cc1ccc(NNC(=O)C2CCC2)cc1C ... inactive
FC(F)(F)c1cccc(NC(=S)Nc2cccc(Cl)c2)c1 ... active
Cc1ccc(C(=O)OC2=CC(=O)CC(C)(C)C2)cc1 ... inactive
Cn1cc(Cl)c(C(=O)NNC(=S)Nc2cccc(Cl)c2)n1 ... inactive

Q: GET /call?item= `Nc1c(Cl)cc(S(N)(=O)=O)cc1S(N)(=O)=O` returns the recorded outcome of this test.
Ans: inactive

Q: Could you please tell me the result logged for `CCOc1cccc(/C=N/N2C(=O)CSC2=S)c1O` in this assay?
Ans: inactive

Q: Could you check what this test reported for `O=C1CSC(=S)N1/N=C/c1ccc(O)c([N+](=O)[O-])c1` ?
Ans: active

----------
- measured on: Cysteine protease ATG4B (Homo sapiens)
- experimental details: ATG4B protease inhibitors, primary screen, biochemical, fluorescence, uHTS (AID 504462)
- recorded conditions: ATG4B cleavage of LC3-PLA2, NBD-HPC fluorescence, 1 h; at 8.33 µM; hits give high values
The whole screen tested about 340,000 compounds, of which about 1,700 (0.5%) were called active. Many of the other results were omitted from the sample, so actives are more common in it than they were.
readout: inhibition (%)
Please give a number only; it is taken to be in %.

CCOc1ccc(CCNC(=O)COC(=O)CCS(=O)(=O)c2ccc(C)cc2)cc1OCC ... -3.02
COc1ccc(C)cc1S(=O)(=O)N(CC(=O)Nc1cccc([N+](=O)[O-])c1)c1ccc(C)cc1 ... 88.8
Cc1ccc(C2=N/C(=C\c3ccc(OS(=O)(=O)c4ccc(C)cc4)cc3)C(=O)O2)cc1 ... -3.55
COc1ccc(CNC(=O)C2CCN(S(=O)(=O)c3ccc(SC)cc3)CC2)cc1 ... -7.7

Q: Return reported inhibition. Input compound: `S=C(NCCc1ccccc1)NCc1ccccc1Cl`
Ans: 48.6

Q: Give me measured inhibition, please, for this compound: `Cc1ccc(S(=O)(=O)N(CC(=O)Nc2cccc([N+](=O)[O-])c2)Cc2ccc(Cl)cc2)cc1`
Ans: 75.6

Q: Find the measured inhibition of `NC(=O)C1CCN(C(=O)c2ccc(F)c(S(=O)(=O)N3CCOCC3)c2)CC1` and report it.
Ans: 0.71

Q: Consider the compound `CCCCCc1c(C)nc(N2CCN(Cc3ccc4c(c3)OCO4)CC2)[nH]c1=O` and give its recorded inhibition.
Ans: -0.63

Q: Answer with reported inhibition of `CCCc1ccc(C(=O)[C@@H]2[C@@H](C(C)=O)N3c4ccc(F)cc4C=C[C@@H]3[C@@]23C(=O)Nc2ccccc23)cc1`
Ans: 7.49

Q: Note down inhibition recorded for `CCc1ccc(/C=C2\SC(N3CCOCC3)=NC2=O)cc1`
Ans: -5.05

Q: Report measured inhibition; entry is `COc1ccc(NC(=O)CSc2nnc(Cc3ccccc3)c(=O)n2N)cc1`
Ans: -4.35

Q: Annotate the compound `COC(=O)Cc1ccc(NC(=S)NCc2ccccc2)cc1` with its measured inhibition.
Ans: 8.5

Q: Hello, please tell me recorded inhibition for this one: `S=C(NCc1ccco1)NCc1ccccc1Cl`
Ans: 13.4

Q: Please report inhibition for the following compound: `Fc1ccccc1CNC(=S)Nc1ccc(Cl)cc1`
Ans: 23.2

Q: Look up and state reported inhibition for `Fc1ccc2[nH]c3c(N4CCN(Cc5ccc6c(c5)OCO6)CC4)ncnc3c2c1`
Ans: 48.4

Q: Respond only with inhibition recorded for `CN1C(=O)[C@H]2[C@@H](C3CC3)N3C(=O)CN(Cc4ccccc4)C(=O)[C@@]3(C)[C@H]2C1=O`
Ans: 0.76

Q: Supply inhibition value. Item: `CCNC(=S)Nc1cccc(Cl)c1C`
Ans: -7.76

Q: Quote inhibition reported for `CN(c1ccccc1)S(=O)(=O)c1cccc(NC(=O)Cc2ccc(Cl)cc2)c1` please.
Ans: -14.9

Q: Identify the reported inhibition for the following entry. `CCS(=O)(=O)C1=NSC2=NC(=O)/C(=C\c3ccc(OS(=O)(=O)c4ccccc4)cc3)C(=N)N21`
Ans: 43.1

Q: Tell me its inhibition given `CC(=O)N1CCN(C(=O)c2cc(-c3ccc(Cl)s3)nc3ccccc23)CC1` as the entry.
Ans: 2

Q: Fill in reported inhibition for this entry: S=C(NCCc1ccccc1)NCC1CCCO1 (stereo unspecified)
Ans: -7.53

Numbers sourced from PubChem BioAssay AID504462.
